Test system: PPARg DBDmut IVT, anti-PPARg (DBD mutation: PPARg1 K132A/R137A, NR concentration 270 nM)
Assay: PBM binding z-score (relative to random genomic background probes); higher = stronger binding; sequences stand for … in GC…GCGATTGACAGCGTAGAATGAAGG
Readout type: PBM binding z-score
Answers are plain numbers.

>>> data_value("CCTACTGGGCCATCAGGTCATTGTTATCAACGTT")
0.711
>>> data_value("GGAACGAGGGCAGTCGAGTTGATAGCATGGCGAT")
-0.59
>>> data_value("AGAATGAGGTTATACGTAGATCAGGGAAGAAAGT")
1.16
>>> data_value("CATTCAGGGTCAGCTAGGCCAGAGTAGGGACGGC")
0.968
>>> data_value("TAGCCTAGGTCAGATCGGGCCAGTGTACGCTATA")
-0.791
>>> data_value("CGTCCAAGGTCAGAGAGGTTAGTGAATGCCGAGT")
-0.422
>>> data_value("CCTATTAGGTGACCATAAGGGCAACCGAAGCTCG")
-0.392
>>> data_value("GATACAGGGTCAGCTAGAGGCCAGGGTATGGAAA")
-0.589

I need PBM binding z-score for every entry listed below, if you could help.
1. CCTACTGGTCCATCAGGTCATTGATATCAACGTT
2. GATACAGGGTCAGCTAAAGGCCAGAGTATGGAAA
3. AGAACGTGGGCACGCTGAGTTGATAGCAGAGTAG

RESULT:
[0.596, -0.417, -0.419]

QUERY: Field request: PBM binding z-score | item: `CCTAGCAGGCCAGGGTTACTCAAGCATTTCGCTT`
RESULT: -1.06

---

System: PPARg:RXRa 270nM:90nM, anti-RXR (NR concentration 270 nM, RXRa partner concentration 90 nM)
Assay: PBM binding z-score (relative to random genomic background probes); higher = stronger binding; sequences stand for … in GC…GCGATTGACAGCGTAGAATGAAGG
Think of 3 as a floor: if PBM binding z-score stands on it or above, it is True; beneath it, False.

Answered examples (5):
>>> qualitative_label("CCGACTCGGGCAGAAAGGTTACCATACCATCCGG")
"False"
>>> qualitative_label("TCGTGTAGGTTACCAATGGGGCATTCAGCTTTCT")
"False"
>>> qualitative_label("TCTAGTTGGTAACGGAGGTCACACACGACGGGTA")
"True"
>>> qualitative_label("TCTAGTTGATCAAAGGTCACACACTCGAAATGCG")
"True"
>>> qualitative_label("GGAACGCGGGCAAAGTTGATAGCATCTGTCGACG")
"True"

QUERY: Hello, I need to know if `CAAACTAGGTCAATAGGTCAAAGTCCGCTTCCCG` has measured PBM binding z-score not below 3. Thanks!
RESULT: True

QUERY: Hello, I need to know if `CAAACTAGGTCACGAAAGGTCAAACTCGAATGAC` has measured PBM binding z-score not below 3. Thanks!
RESULT: True

QUERY: Hello, I need to know if `GCCAGCAGGCCATTTGGGTCACTCAATGACGGGC` has measured PBM binding z-score not below 3. Thanks!
RESULT: False

QUERY: Hello, I need to know if `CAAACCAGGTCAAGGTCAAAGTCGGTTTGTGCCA` has measured PBM binding z-score not below 3. Thanks!
RESULT: True

QUERY: Hello, I need to know if `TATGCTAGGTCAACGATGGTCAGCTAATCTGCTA` has measured PBM binding z-score not below 3. Thanks!
RESULT: False

QUERY: Hello, I need to know if `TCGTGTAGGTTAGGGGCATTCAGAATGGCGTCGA` has measured PBM binding z-score not below 3. Thanks!
RESULT: False

QUERY: Hello, I need to know if `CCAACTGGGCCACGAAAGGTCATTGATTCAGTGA` has measured PBM binding z-score not below 3. Thanks!
RESULT: True

---

System: THRa homodimer (NR concentration 90 nM)
Assay: PBM binding z-score (relative to random genomic background probes); higher = stronger binding; sequences stand for … in GC…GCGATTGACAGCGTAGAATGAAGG
Readout type: PBM binding z-score
Answers are plain numbers.

>>> data_value("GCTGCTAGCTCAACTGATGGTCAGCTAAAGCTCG")
-1.48
>>> data_value("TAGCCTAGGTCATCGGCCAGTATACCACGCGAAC")
1.11
>>> data_value("AGATGTAGGTTACATCCGGGTCATTCAGGCTATG")
2.08
>>> data_value("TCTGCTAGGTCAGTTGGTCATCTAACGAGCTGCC")
0.119
>>> data_value("GCACGGAGGACAAGGTCAGAGCTTTGTCCGTAGA")
1.58
>>> data_value("TCTGCTCGGTCAACGATGGTCAGCTAATCTGCTA")
-0.89

I need PBM binding z-score for every entry listed below, if you could help.
1. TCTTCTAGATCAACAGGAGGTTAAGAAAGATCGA
2. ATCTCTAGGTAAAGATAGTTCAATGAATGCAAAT
3. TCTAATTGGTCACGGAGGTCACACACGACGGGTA
4. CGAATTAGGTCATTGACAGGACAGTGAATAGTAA
5. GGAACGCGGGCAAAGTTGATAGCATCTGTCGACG
6. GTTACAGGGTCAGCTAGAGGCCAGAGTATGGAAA

RESULT:
1: -0.076; 2: -0.0901; 3: 2.75; 4: 1.54; 5: -1.04; 6: 0.599

---

Tested on: PPARg:RXRa 270nM:90nM, anti-RXR (NR concentration 270 nM, RXRa partner concentration 90 nM)
Experiment: PBM binding z-score (relative to random genomic background probes); higher = stronger binding; sequences stand for … in GC…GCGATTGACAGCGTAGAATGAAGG
Think of 4 as a floor: if PBM binding z-score stands on it or above, it is yes (1); beneath it, no (0).

Answered examples (4):
>>> qualitative_label("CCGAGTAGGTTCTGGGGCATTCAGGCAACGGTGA")
"no (0)"
>>> qualitative_label("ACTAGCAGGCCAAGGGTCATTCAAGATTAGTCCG")
"yes (1)"
>>> qualitative_label("CCTCGGAGGACAGAAGGTCAGGGCTGTCCGCTTT")
"no (0)"
>>> qualitative_label("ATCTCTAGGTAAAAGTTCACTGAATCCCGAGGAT")
"yes (1)"

QUERY: Hello, I need to know if `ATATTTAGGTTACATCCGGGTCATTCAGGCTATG` has measured PBM binding z-score not below 4. Thanks!
RESULT: yes (1)

QUERY: Hello, I need to know if `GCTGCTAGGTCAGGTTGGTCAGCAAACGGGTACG` has measured PBM binding z-score not below 4. Thanks!
RESULT: no (0)

QUERY: Hello, I need to know if `TATATTAGTTGAAGGGCAACCGACGAGTCCGTTT` has measured PBM binding z-score not below 4. Thanks!
RESULT: no (0)

QUERY: Hello, I need to know if `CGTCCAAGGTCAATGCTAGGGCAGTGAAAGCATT` has measured PBM binding z-score not below 4. Thanks!
RESULT: yes (1)

QUERY: Hello, I need to know if `TTTAGTTGGTCACGGAGGTCACACACGACGGGTA` has measured PBM binding z-score not below 4. Thanks!
RESULT: yes (1)

---

Test system: PPARg:RXRa 270nM:90nM, anti-RXR (NR concentration 270 nM, RXRa partner concentration 90 nM)
Assay: PBM binding z-score (relative to random genomic background probes); higher = stronger binding; sequences stand for … in GC…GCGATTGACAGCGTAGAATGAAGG
Class (required): determined from PBM binding z-score; valid ranges are band 1 (below 2), band 2 (2 to below 4), band 3 (4 or more)

QUERY: Form field 'band' for `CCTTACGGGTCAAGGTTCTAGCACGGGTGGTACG`
RESULT: band 3

QUERY: Form field 'band' for `AGTCAAAGTTCACTATGTAACGTAAGATTCAGCT`
RESULT: band 3

QUERY: Form field 'band' for `GATACAGGTTCAAGGCCAGAGTACGCGTATTGAT`
RESULT: band 1

---

System: PPARa:RXRa (NR concentration 270 nM, RXRa partner concentration 90 nM)
Assay: PBM binding z-score (relative to random genomic background probes); higher = stronger binding; sequences stand for … in GC…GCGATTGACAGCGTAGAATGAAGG
Think of 3 as a floor: if PBM binding z-score stands on it or above, it is label 1; beneath it, label 0.

Answered examples (10):
>>> qualitative_label("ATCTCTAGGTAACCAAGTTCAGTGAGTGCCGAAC")
"label 0"
>>> qualitative_label("ACAGACAGGTGAGTGAAAGTAACTCAGCTGGACG")
"label 0"
>>> qualitative_label("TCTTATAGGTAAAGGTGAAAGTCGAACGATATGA")
"label 1"
>>> qualitative_label("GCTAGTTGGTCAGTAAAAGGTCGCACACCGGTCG")
"label 0"
>>> qualitative_label("ACTAGCAGGCCAAGTTTGAGTCACTCAAACAAAG")
"label 0"
>>> qualitative_label("GTACCAAGGTGAATAGGTCGTTGAGGAGTAGGCG")
"label 0"
>>> qualitative_label("CAAACTAGGGCAAGGTCAAAGTCGGTTTGTGCCA")
"label 1"
>>> qualitative_label("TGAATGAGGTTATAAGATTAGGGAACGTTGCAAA")
"label 0"
>>> qualitative_label("CGTCCAAGGTCATAGGAGGACAGTGAAGACAGAT")
"label 1"
>>> qualitative_label("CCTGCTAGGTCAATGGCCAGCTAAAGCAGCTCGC")
"label 0"

QUERY: Hello, I need to know if `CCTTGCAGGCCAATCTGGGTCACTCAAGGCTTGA` has measured PBM binding z-score not below 3. Thanks!
RESULT: label 1

QUERY: Hello, I need to know if `CAAACTAGGTCAAGGTCAAAGTCGGTTTGTGCCA` has measured PBM binding z-score not below 3. Thanks!
RESULT: label 1

QUERY: Hello, I need to know if `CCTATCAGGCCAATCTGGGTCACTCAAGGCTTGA` has measured PBM binding z-score not below 3. Thanks!
RESULT: label 1

QUERY: Hello, I need to know if `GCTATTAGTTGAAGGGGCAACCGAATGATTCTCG` has measured PBM binding z-score not below 3. Thanks!
RESULT: label 0

QUERY: Hello, I need to know if `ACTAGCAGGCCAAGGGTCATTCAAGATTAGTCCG` has measured PBM binding z-score not below 3. Thanks!
RESULT: label 1

QUERY: Hello, I need to know if `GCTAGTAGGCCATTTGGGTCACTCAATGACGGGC` has measured PBM binding z-score not below 3. Thanks!
RESULT: label 0

QUERY: Hello, I need to know if `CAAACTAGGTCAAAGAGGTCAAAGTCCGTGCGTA` has measured PBM binding z-score not below 3. Thanks!
RESULT: label 1
